Biological target: Glycine receptor subunit alpha-1 (Homo sapiens, UniProt P23415)
Sequence (P23415 whole entry): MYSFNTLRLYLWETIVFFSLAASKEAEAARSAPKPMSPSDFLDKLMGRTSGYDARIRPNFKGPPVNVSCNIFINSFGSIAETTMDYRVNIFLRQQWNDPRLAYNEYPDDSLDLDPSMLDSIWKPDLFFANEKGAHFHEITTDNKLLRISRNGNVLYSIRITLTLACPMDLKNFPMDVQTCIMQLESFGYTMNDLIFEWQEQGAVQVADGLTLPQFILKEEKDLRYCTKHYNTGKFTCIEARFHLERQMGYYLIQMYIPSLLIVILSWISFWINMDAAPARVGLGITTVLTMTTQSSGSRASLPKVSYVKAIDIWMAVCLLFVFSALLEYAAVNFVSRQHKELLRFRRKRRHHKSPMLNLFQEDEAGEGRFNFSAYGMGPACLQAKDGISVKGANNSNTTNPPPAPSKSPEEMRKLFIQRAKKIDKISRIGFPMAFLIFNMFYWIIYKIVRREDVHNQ
Test: Antagonist activity at recombinant human glycine receptor alpha 1 expressed in human tsA201 cells assessed as inhibition of glycine-induced receptor activation after 30 mins by FLIPR membrane potential blue assay
Assay type: cell-based
Conditions: read-out: IC50

compound: CC(C)CO/N=C1/C(=O)N2c3ccccc3[C@@]34CCN5CC6=CCO[C@@H]1[C@@H]([C@H]23)[C@H]6C[C@H]54
IC50: 260 nM
--
compound: O=C1C[C@@]23c4ccccc4N4C(=O)C[C@@H]5OCC=C6CN1[C@H]2C[C@@H]6[C@@H]5[C@H]43
IC50: 6900 nM
--
compound: CCCCO/N=C1/C(=O)N2c3ccccc3[C@@]34CCN5CC6=CCO[C@@H]1[C@@H]([C@H]23)[C@H]6C[C@H]54
IC50: 370 nM
--
compound: COC(=O)CCCCO/N=C1/C(=O)N2c3ccccc3[C@@]34CCN5CC6=CCO[C@@H]1[C@@H]([C@H]23)[C@H]6C[C@H]54
IC50: 720 nM
--
compound: O=C1/C(=N/OCc2ccccc2)[C@@H]2OCC=C3CN4CC[C@]56c7ccccc7N1[C@H]5[C@H]2[C@H]3C[C@H]46
IC50: 170 nM
--
compound: CCC[N+]12CC[C@@]34c5ccccc5N5C(=O)C[C@@H]6OCC=C(C1)[C@H](C[C@@H]32)[C@@H]6[C@H]54 (stereo partly specified)
IC50: 10000 nM
